TARGET OR SYSTEM: FLNA pentapeptide of SEQ ID NO: 1 (Bn-VAKGL) (Homo sapiens, UniProt P21333)
ASSAY DETAILS: FITC-NLX-based FLNA screening assay (inhibition of FITC-naloxone binding to Bn-VAKGL on streptavidin plates)
APPLIED CONDITIONS: read-out: Percent Binding Inhibition, FLNA-binding compound 0.01 μM; 10 nM FITC-NLX
Catalogue of molecules with associated inhibition at 0.01 µM
Give the quantity in %, number only.

Sample records with inhibition at 0.01 µM:
{"MOLECULE": "O=S(=O)(c1ccc(Oc2ccccc2)cc1)N1CCC2(CC1)OCCN2S(=O)(=O)c1ccc(Oc2ccccc2)cc1 [Compound C0149M]", "inhibition at 0.01 µM (%)": 48.5}
{"MOLECULE": "COc1ccc(CCC(=O)CC2c3c(cc4c(c3OC)OCO4)CC[N+]2(C)C)cc1 (centres unmarked) [Compound B0016]", "inhibition at 0.01 µM (%)": 27.1}
{"MOLECULE": "O=C1CN(Cc2ccccc2)C2(CCNCC2)N1 [Compound C0115M]", "inhibition at 0.01 µM (%)": 47.8}

Readout inhibition at 0.01 µM for O=S(=O)(c1cccc2cccnc12)N1CCC2(CC1)OCCN2S(=O)(=O)c1cccc2cccnc12 [Compound C0143M] , test system FLNA pentapeptide of SEQ ID NO: 1 (Bn-VAKGL) (Homo sapiens, UniProt P21333), was 45.3

The recorded inhibition at 0.01 µM with FLNA pentapeptide of SEQ ID NO: 1 (Bn-VAKGL) (Homo sapiens, UniProt P21333) for CC1CCC(C(C)C)C(OCC(O)CN2CCCCC2C)C1 (centres unmarked) [Compound A0007] was 39.2

Measured inhibition at 0.01 µM for this entry CC1CN(CC(O)COc2ccccc2)CC(C)O1 (centres unmarked) [Compound A0025] on FLNA pentapeptide of SEQ ID NO: 1 (Bn-VAKGL) (Homo sapiens, UniProt P21333): 39

Entry C=CCN1CCC2(CC1)OCCN2S(=O)(=O)c1ccc(OC)cc1 [Compound C0091M] , FLNA pentapeptide of SEQ ID NO: 1 (Bn-VAKGL) (Homo sapiens, UniProt P21333) data, inhibition at 0.01 µM value: 38.1

Record CCc1ccc(S(=O)(=O)N2CCOC23CCN(CC2CC2)CC3)cc1 [Compound C0135M] has FLNA pentapeptide of SEQ ID NO: 1 (Bn-VAKGL) (Homo sapiens, UniProt P21333) inhibition at 0.01 µM equal to 53.9

---

TARGET OR SYSTEM: FLNA pentapeptide of SEQ ID NO: 1 (Bn-VAKGL) (Homo sapiens, UniProt P21333)
ASSAY DETAILS: FITC-NLX-based FLNA screening assay (inhibition of FITC-naloxone binding to Bn-VAKGL on streptavidin plates)
APPLIED CONDITIONS: read-out: Percent Binding Inhibition, FLNA-binding compound 0.1 μM; 10 nM FITC-NLX
Definition: the class of an entry is the range in low bin = under 40%, mid bin = from 40% up to 50%, high bin = 50% and over that contains its inhibition at 0.1 µM.

{"MOLECULE": "CCc1ccc(S(=O)(=O)N2CCOC23CCN(CC2CC2)CC3)cc1 [Compound C0135M]", "QUALITATIVE LABEL": "high bin"}

Entry CC(=O)c1ccc(C(=O)N2CCC3(CC2)OCCN3S(=O)(=O)c2ccc(C(C)=O)cc2)cc1 [Compound C0052] belongs to which category? low bin

Which inhibition at 0.1 µM band matches COc1ccccc1S(=O)(=O)N1CCC2(CC1)OCCN2S(=O)(=O)c1ccccc1OC [Compound C0003] ? mid bin
